This collection of values is drawn from PubChem BioAssay.

experiment.notes: JC-1 mitochondrial potential readout, lung cancer cells – cell-based, A549, JC-1 fluorescence, basal, 24 h, 100 nL, profiling panel (AID 1138);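 note: A549 lung adenocarcinoma cells under basal conditions with no added stimulus; test concentration not given here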
test.parameters: higher = more signal

compound	z-score
COc1ccc([Si](C)(C)[C@@H]2[C@@H](CCO)O[C@]3(C(=O)N(Cc4ccccc4)c4ccc(N5C(=O)c6cccc7cccc5c67)cc43)[C@H]2C)cc1	-0.0894
COc1ccc([Si](C)(C)[C@@H]2[C@@H](CC(=O)N(CCO)Cc3ccccc3)O[C@]3(C(=O)N(Cc4cccc(N5CCCCC5=O)c4)c4ccccc43)[C@H]2C)cc1	-0.171
NCCCCCNC(=O)[C@H]1C[C@H]2C(=O)N3CCC[C@H]3C(=O)N2[C@H]1c1cccc(OCCO)c1	-0.705
C=C[C@@H](CO)N(Cc1ccc(OC)cc1)S(=O)(=O)c1ccc(Br)cc1	0.739
COc1cccc(C)c1NC(=O)O[C@H]1[C@H](OC(=O)Nc2ccccc2-c2ccccc2)[C@H](OC(=O)Nc2ccccc2-c2ccccc2)[C@@H](OC)O[C@@H]1CO	-0.41
O=C(NCCN1CCOCC1)[C@@H]1c2ccccc2C(=O)N(Cc2ccccc2Cl)[C@H]1c1ccc(CO)cc1	1.79
[N-]=[N+]=Nc1ccccc1C[C@@]1(C(=O)NCCN2CCOCC2)N=C(c2ccc(OCCCO)cc2)O[C@@H]1c1ccccc1N=[N+]=[N-]	-0.381
O[C@@H](Cc1ccccc1)[C@@H](/C=C/C1CC1)N(CC#Cc1ccccc1)Cc1ccccc1Br	0.163
CCCCC(O)C1C=CC2C(=O)N(C)C(=O)C2N1N(c1ccccc1)c1ccccc1 (stereo not drawn)	0.804
[N-]=[N+]=Nc1ccccc1C[C@]1(C(=O)NCCN2CCOCC2)COC(c2ccc(OCCCO)cc2)=N1	2.08
C=CCOC(=O)[C@@]1(Cc2ccccc2)C[C@H]2CO[C@H](c3ccc(OC)cc3)N2C1=O	0.272
COCC(=C=CC[C@H](O)c1ccc(OCCO)cc1)CCO	0.63
COc1cccc(C)c1NC(=O)O[C@H]1[C@H](OC(=O)Nc2ccc3c(c2)OCO3)[C@@H](OC(=O)Nc2ccc3c(c2)OCO3)[C@@H](OC)O[C@@H]1CO	-0.588

---

Entries annotated with measured z-score
experiment.notes: S6 kinase pathway phospho-S6 level changes – cell-based, A549, cytoblot, luminescence, serum-stimulated, primary screen (AID 1158);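 note: serum-stimulated A549 lung adenocarcinoma cells; signal is phosphorylated S6 detected by cytoblot immunostaining with HRP secondary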
test.parameters: 5 h, higher = more signal

molecule	z-score
COc1cc(NN2C(C(O)c3cc(OC)c(OC)c(OC)c3)C=CC3C(=O)N(C)C(=O)C32)cc(OC)c1OC (stereo not drawn)	-0.402
O=C1N(Cc2ccccc2)c2ccccc2C[C@]12N=C(c1ccc(OCCCO)cc1)O[C@@H]2c1ccccc1	-0.027
CCCCC(CC)C(O)C1C=CC2C(=O)N(C)C(=O)C2N1Nc1ccccc1 (stereo not drawn)	-0.778
CN(C)C(=O)[C@]1(CCC(=O)OC(C)(C)C)N=C(c2ccc(OCCCO)cc2)O[C@@H]1c1ccccc1CN=[N+]=[N-]	-0.175
CCCC=C(CCC)[C@@H](NS(=O)(=O)CC12CCC(CC1=O)C2(C)C)c1ccc(C(=O)OC)cc1 (stereo partly drawn)	0.922
CCCCCCCCCC(O)C1C=CC2C(=O)N(c3ccccc3)C(=O)C2N1Nc1cc(OC)c(OC)c(OC)c1 (stereo not drawn)	1.05
COC(=O)[C@@]1(Cc2ccc(OC)cc2)[C@H]2c3cc(C(=O)N(C)C)n(Cc4ccc(C)o4)c3C[C@H]2CN1C(=O)c1ccccc1	1.5
COc1ccc(C#Cc2ccc3c(c2)[C@]2(C(=O)N3)[C@H](c3ccc(OCCO)cc3)N3[C@H](c4ccccc4)[C@H](c4ccccc4)OC(=O)[C@H]3[C@@H]2C(=O)NC[C@H](O)c2ccccc2)cc1	0.0701
